Recorded values, source patent US20240117334A1.

Biological target: Human Factor B (human) (UniProt P00751)
Sequence (P00751 26-764 limits assumed): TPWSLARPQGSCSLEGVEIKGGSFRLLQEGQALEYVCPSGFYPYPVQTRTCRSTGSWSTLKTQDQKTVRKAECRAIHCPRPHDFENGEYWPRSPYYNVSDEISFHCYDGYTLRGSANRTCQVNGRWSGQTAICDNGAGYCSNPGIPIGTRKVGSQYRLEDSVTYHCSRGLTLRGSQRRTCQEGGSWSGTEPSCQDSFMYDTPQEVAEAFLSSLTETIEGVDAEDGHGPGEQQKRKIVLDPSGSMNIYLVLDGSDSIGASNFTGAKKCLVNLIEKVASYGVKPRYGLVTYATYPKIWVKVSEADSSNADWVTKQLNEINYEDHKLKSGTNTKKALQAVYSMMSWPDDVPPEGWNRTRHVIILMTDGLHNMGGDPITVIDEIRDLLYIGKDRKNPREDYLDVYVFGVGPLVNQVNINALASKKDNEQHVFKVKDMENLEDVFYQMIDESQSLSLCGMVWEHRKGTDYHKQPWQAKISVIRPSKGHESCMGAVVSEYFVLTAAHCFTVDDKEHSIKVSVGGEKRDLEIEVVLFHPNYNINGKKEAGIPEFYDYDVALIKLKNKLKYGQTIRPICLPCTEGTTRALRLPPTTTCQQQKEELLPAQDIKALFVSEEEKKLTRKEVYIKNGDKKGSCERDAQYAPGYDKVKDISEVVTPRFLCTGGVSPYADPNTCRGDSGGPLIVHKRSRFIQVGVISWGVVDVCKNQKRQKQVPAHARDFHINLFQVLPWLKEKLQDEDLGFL
Test: cell-based or functional assay
Listed here: items and their measured fB Cleavage EC50.
Hi! Could you send only the number? It should be in nM, unit omitted.

Sample answers from the record:
BINDER	UNITS OF MEASURE	OBSERVED MEASUREMENT
chymase C22S/P38Q/K40M/F41R/L99Y/V138I/F173L/D175Q/A190S/V213A/S218T/A226R (enzyme) IIGGTESKPHSRPYMAYLEIVTSNGQSMRCGGFLIRRNFVLTAAHCAGRSITVTLGAHNITEEEDTWQKLEVIKQFRHPKYNTSTYHHDIMLLKLKEKASLTLAVGTLPFPSQFNFVPPGRMCRIAGWGRTGVLKPGSDTLQEVKLRLMDPQACSHLRQFDHNLQLCVGNPRKTKSSFKGDSGGPLLCAGVAQGIASYGRTDAKPPRVFTRISHYRPWINQILQAN	nM	1650
chymase C22S/P38Q/K40A/F41R/L99H/V138I/F173Y/A190S/V213A/S218V/A226R (enzyme) IIGGTESKPHSRPYMAYLEIVTSNGQSARCGGFLIRRNFVLTAAHCAGRSITVTLGAHNITEEEDTWQKLEVIKQFRHPKYNTSTHHHDIMLLKLKEKASLTLAVGTLPFPSQFNFVPPGRMCRIAGWGRTGVLKPGSDTLQEVKLRLMDPQACSHYRDFDHNLQLCVGNPRKTKSSFKGDSGGPLLCAGVAQGIASYGRVDAKPPRVFTRISHYRPWINQILQAN	nM	406
chymase C22S/P38Q/K40Q/F41R/V138I/F173Y/D175N/A190S/V213A/S218V/A226R (enzyme) IIGGTESKPHSRPYMAYLEIVTSNGQSQRCGGFLIRRNFVLTAAHCAGRSITVTLGAHNITEEEDTWQKLEVIKQFRHPKYNTSTLHHDIMLLKLKEKASLTLAVGTLPFPSQFNFVPPGRMCRIAGWGRTGVLKPGSDTLQEVKLRLMDPQACSHYRNFDHNLQLCVGNPRKTKSSFKGDSGGPLLCAGVAQGIASYGRVDAKPPRVFTRISHYRPWINQILQAN	nM	100
chymase C22S/P38Q/K40L/F41R/V138I/F173Y/D175H/A190S/V213A/S218T/A226R (enzyme) IIGGTESKPHSRPYMAYLEIVTSNGQSLRCGGFLIRRNFVLTAAHCAGRSITVTLGAHNITEEEDTWQKLEVIKQFRHPKYNTSTLHHDIMLLKLKEKASLTLAVGTLPFPSQFNFVPPGRMCRIAGWGRTGVLKPGSDTLQEVKLRLMDPQACSHYRHFDHNLQLCVGNPRKTKSSFKGDSGGPLLCAGVAQGIASYGRTDAKPPRVFTRISHYRPWINQILQAN	nM	121
chymase C22S/P38Q/K40A/F41R/L99H/V138I/F173M/D175T/A190S/V213A/S218I/A226R (enzyme) IIGGTESKPHSRPYMAYLEIVTSNGQSARCGGFLIRRNFVLTAAHCAGRSITVTLGAHNITEEEDTWQKLEVIKQFRHPKYNTSTHHHDIMLLKLKEKASLTLAVGTLPFPSQFNFVPPGRMCRIAGWGRTGVLKPGSDTLQEVKLRLMDPQACSHMRTFDHNLQLCVGNPRKTKSSFKGDSGGPLLCAGVAQGIASYGRIDAKPPRVFTRISHYRPWINQILQAN	nM	882
chymase C22S/S189T/A226R (enzyme) IIGGTESKPHSRPYMAYLEIVTSNGPSKFCGGFLIRRNFVLTAAHCAGRSITVTLGAHNITEEEDTWQKLEVIKQFRHPKYNTSTLHHDIMLLKLKEKASLTLAVGTLPFPSQFNFVPPGRMCRVAGWGRTGVLKPGSDTLQEVKLRLMDPQACSHFRDFDHNLQLCVGNPRKTKTAFKGDSGGPLLCAGVAQGIVSYGRSDAKPPRVFTRISHYRPWINQILQAN	nM	7980

Please give measured fB Cleavage EC50 of the following entry: chymase C22S/K40L/F41K/L99H/F173Y/D175S/S218I/A226R (enzyme) IIGGTESKPHSRPYMAYLEIVTSNGPSLKCGGFLIRRNFVLTAAHCAGRSITVTLGAHNITEEEDTWQKLEVIKQFRHPKYNTSTHHHDIMLLKLKEKASLTLAVGTLPFPSQFNFVPPGRMCRVAGWGRTGVLKPGSDTLQEVKLRLMDPQACSHYRSFDHNLQLCVGNPRKTKSAFKGDSGGPLLCAGVAQGIVSYGRIDAKPPRVFTRISHYRPWINQILQAN
101
